binders and their reported Kd
# assayed.target: YFP conjugated to the human Keap1 Kelch domain (YFP-Kelch) (human, UniProt Q14145 321-609)
# Sequence (Q14145 321-609): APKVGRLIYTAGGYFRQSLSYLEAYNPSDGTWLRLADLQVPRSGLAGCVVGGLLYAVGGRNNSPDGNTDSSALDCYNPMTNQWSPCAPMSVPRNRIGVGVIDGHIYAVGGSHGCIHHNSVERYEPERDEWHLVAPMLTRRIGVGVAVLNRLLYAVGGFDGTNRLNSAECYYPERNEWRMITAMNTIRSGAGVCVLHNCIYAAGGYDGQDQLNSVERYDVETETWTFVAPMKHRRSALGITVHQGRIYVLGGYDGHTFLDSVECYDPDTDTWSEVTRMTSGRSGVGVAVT
# method.summary: FRET or BRET

binder | Kd
AFFAQLQLDEETGDFL [CFP-E82D] | > 100 nM
AFFAQLQLDPETGELL [CFP-E78P/F83L] | 40 nM

Record request: Kd value, item AFFAQLQLDEEKGEFL [CFP-T80K]
> 100 nM

Name the recorded Kd for AFFAQLQLDEQTGEFL [CFP-E79Q] .
> 100 nM
